Data credit: patent US20260092115A1

Molecular target: T1, human CTLA4 (soluble analyte of the Biacore assays of Examples 3-3, 4 and 5) (human, UniProt P16410 36-161)
T1 construct: also called hCTLA4
T1 sequence: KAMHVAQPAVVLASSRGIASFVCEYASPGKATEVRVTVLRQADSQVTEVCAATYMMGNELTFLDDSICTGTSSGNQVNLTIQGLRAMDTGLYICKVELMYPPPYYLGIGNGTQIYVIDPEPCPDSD
Test: SPR 37C, Ab on Protein G, 1000 nM CTLA4, no ATP; no ATP; binding amount at 1000 nM CTLA4
experimentalEndpoint: Binding to Human CTLA4 (amount per unit antibody)

04H1208-G1m/04L1086-lam1 (antibody, human IgG1, lambda, V domains shown) VH: EVQLVESGGGLVKPGGSLRLSCAASGFTFSSKTMNWVRQAPGKGLEWVSSISTRSGYIYYARSVKGRFTISRDNAKNSLYLQMNSLRAEDTAVYYCARYGKREDMLWVFDYWGQGTLVTVSS VL: QSALTQPPSASGSPGQTVTISCDGPSTGVGDYNYVHWYQQHPGKAPKLMIYFTSKKPSGVPDRFSGSKSGNTASLTVSGLQAEDEADYFCQTYAAPLGPMFGGGTKLTVLG ... 0.005

Attention now shifts to the item below.
Challenge: Respond only with Binding to Human CTLA4 (amount per unit antibody) recorded for 04H1207-G1m/04L1086-lam1 (antibody, human IgG1, lambda, V domains shown) VH: EVQLVESGGGLVKPGGSLRLSCAASGFTFSSKTMNWVRQAPGKGLEWVSSISTRSGYIYYAESVKGRFTISRDNAKNSLYLQMNSLRAEDTAVYYCARYGKREDMLWVFDYWGQGTLVTVSS VL: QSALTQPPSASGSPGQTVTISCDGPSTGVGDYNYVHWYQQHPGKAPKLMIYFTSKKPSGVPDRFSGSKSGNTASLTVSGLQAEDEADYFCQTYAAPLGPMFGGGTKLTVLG
Response given: 0.013
